Record form. Attribute: MIC. Fill in for each entry.
# System: Staphylococcus aureus 209P
# method: antimicrobial activities in in vitro testing (MIC), Staphylococcus aureus 209P
# Type: cell-based
# condition-notes: Staphylococcus aureus 209P; in vitro; read-out: Minimum Inhibitory Concentration
Dear colleague, please return just the value in µg/mL, with no unit written.

Recorded MIC of NC(=O)OCC1=C(C(=O)O)N2C(=O)C(NC(=O)[C@H](NC(=O)c3cnc4cncnc4c3O)c3ccc(O)cc3)C2SC1 (stereo partly drawn) , please.
1.56

Recorded MIC of NC(=O)OCC1=C(C(=O)O)N2C(=O)C(NC(=O)[C@H](NC(=O)c3cnccc3O)c3ccc(O)cc3)[C@H]2SC1 (stereo partly drawn) , please.
0.39

Recorded MIC of NC(=O)OCC1=C(C(=O)O)N2C(=O)C(NC(=O)[C@H](NC(=O)c3cnccc3O)c3cccc(N)c3)[C@H]2SC1 (stereo partly drawn) , please.
0.39

Recorded MIC of NC(=O)OCC1=C(C(=O)O)N2C(=O)C(NC(=O)[C@H](NC(=O)c3cnccc3O)c3ccccc3)[C@H]2SC1 (stereo partly drawn) , please.
0.39

Recorded MIC of CSc1ncc2c(O)c(C(=O)N[C@@H](C(=O)NC3C(=O)N4C(C(=O)O)=C(COC(N)=O)CS[C@H]34)c3ccc(O)cc3)cnc2n1 (stereo partly drawn) , please.
0.78

Recorded MIC of NC(=O)OCC1=C(C(=O)O)N2C(=O)C(NC(=O)[C@H](NC(=O)c3cnc4cccnc4c3O)c3ccc(O)c(Cl)c3)C2SC1 (stereo partly drawn) , please.
1.56

Recorded MIC of NC(=O)OCC1=C(C(=O)O)N2C(=O)C(NC(=O)[C@H](NC(=O)c3cnc4cccnc4c3O)c3ccc(O)cc3)[C@H]2SC1 (stereo partly drawn) , please.
0.78

Recorded MIC of NC(=O)OCC1=C(C(=O)O)N2C(=O)C(NC(=O)[C@H](NC(=O)c3cnc4cccnc4c3O)c3cccc(N)c3)C2SC1 (stereo partly drawn) , please.
0.78

Recorded MIC of NC(=O)OCC1=C(C(=O)O)N2C(=O)C(NC(=O)[C@H](NC(=O)c3cnc4cccnc4c3O)c3ccccc3)[C@H]2SC1 (stereo partly drawn) , please.
0.78

Just for reference, patent US4368198A is where these values come from.
